# Target or test system: Human α-thrombin (human, UniProt P00734 328-363; P00734 364-622)
# Assay name: inhibition of thrombin by monovalent active-site moiety; conditions not given at the table
Value type: Ki (µM)
Give bare numbers, in µM.

Give the measured Ki of IRFTDG (Monovalent active-site moiety) .
7
